Values compiled from patent US9820972B2.

test system: GT-1a of NS5A Replicon; assay: HCV double reporter gene (Renilla luciferase) replicon assay, GT-1a; assay type: cell-based, Hepatitis C virus (HCV); settings: Hepatitis C virus, GT1A, GT-1a replicon; class symbols; read-out: EC50 For GT-1a of NS5A Replicon
pEC50: −log10 of the molar value.
endpoint_label: pEC50

// returns reported pEC50 for input `COC(=O)N[C@H](C(=O)N1CCC[C@H]1c1nc(-c2ccc(-c3ccc(-c4cnc([C@@H]5C[C@@H](OC(=O)N6Cc7ccc8c(c7C6)OCO8)CN5C(=O)[C@@H](NC(=O)OC(C)(C)C)C(C)C)[nH]4)cc3)cc2)c[nH]1)C(C)C` 7.30 to 9.00

Can you look up the measured pEC50 of COC(=O)N[C@H](C(=O)N1C[C@H](OC(=O)N2Cc3cc4c(cc3C2)OCO4)CC1c1ncc(-c2ccc(-c3ccc(-c4c[nH]c([C@@H]5CCCN5C(=O)[C@@H](NC(=O)OC)C(C)C)n4)cc3)cc2)[nH]1)C(C)C (stereo partly drawn) for me? 9.00 to 12.00

Entry `COC(=O)N[C@@H](C(=O)N1CC=C[C@H]1c1nc(-c2ccc(-c3ccc(-c4cnc([C@@H]5CC6(CN5C(=O)[C@H](NC(=O)OC)c5ccccc5)OCCO6)[nH]4)cc3)cc2)c[nH]1)c1ccccc1` : reported pEC50 = ? 9.00 to 12.00

Request the reported pEC50 associated with COC(=O)N[C@H](C(=O)N1CN(C(=O)N2Cc3ccc(OC)cc3C2)CC1c1nc(-c2ccc(-c3ccc(-c4c[nH]c([C@@H]5CCCN5C(=O)[C@@H](NC(=O)OC)C(C)C)n4)cc3)cc2)c[nH]1)C(C)C (stereo partly drawn) 9.00 to 12.00

Need pEC50 of `CC(C)[C@H](NC(=O)OC1CCCC1)C(=O)N1CCC[C@H]1c1nc(-c2ccc(-c3ccc(-c4cnc([C@@H]5C[C@@H](OC(=O)N6Cc7cccc(F)c7C6)CN5C(=O)[C@@H](NC(=O)OC5CCCC5)C(C)C)[nH]4)cc3)cc2)c[nH]1` , thanks. < 7.30

Suppose we examine the molecule COC(=O)N[C@@H](C(=O)N1CC=CC1c1nc(-c2ccc(-c3ccc(-c4c[nH]c(C5C=CCN5C(=O)[C@H](NC(=O)OC)c5ccccc5)n4)cc3)cc2)c[nH]1)c1ccccc1 (stereo partly drawn) ; what pEC50 value has been reported? 9.00 to 12.00

Data request, read-out pEC50, for COC(=O)N[C@H](C(=O)N1C[C@@H](OC(=O)N2Cc3ccc4c(c3C2)OCO4)CC1c1nc(-c2ccc(-c3ccc(-c4c[nH]c([C@@H]5CCCCN5C(=O)[C@@H](NC(=O)OC)C(C)C)n4)cc3)cc2)c[nH]1)C(C)C (stereo partly drawn) 9.00 to 12.00

Dear colleague, I am looking for the recorded pEC50 of the following molecule: CN(C)C(=O)N[C@@H](C(=O)N1CC=CC1c1nc(-c2ccc(-c3ccc(-c4c[nH]c(C5CCCN5C(=O)[C@H](NC(=O)N(C)C)c5ccccc5)n4)cc3)cc2)c[nH]1)c1ccccc1 (stereo partly drawn) 9.00 to 12.00

Consider the molecule shown here: COC(=O)N[C@H](C(=O)N1C[C@@H](OC(=O)N2Cc3ccc4c(c3C2)OCO4)CC1c1nc(-c2ccc(-c3ccc(-c4c[nH]c([C@@H]5COCCN5C(=O)[C@@H](NC(=O)OC)C(C)C)n4)cc3)cc2)c[nH]1)C(C)C (stereo partly drawn) What is its recorded pEC50? 9.00 to 12.00
